- target_under_test: Human GLP-1 receptor (Homo sapiens)
- Construct: expressed in transfected cells
- Sequence (P43220 24-463): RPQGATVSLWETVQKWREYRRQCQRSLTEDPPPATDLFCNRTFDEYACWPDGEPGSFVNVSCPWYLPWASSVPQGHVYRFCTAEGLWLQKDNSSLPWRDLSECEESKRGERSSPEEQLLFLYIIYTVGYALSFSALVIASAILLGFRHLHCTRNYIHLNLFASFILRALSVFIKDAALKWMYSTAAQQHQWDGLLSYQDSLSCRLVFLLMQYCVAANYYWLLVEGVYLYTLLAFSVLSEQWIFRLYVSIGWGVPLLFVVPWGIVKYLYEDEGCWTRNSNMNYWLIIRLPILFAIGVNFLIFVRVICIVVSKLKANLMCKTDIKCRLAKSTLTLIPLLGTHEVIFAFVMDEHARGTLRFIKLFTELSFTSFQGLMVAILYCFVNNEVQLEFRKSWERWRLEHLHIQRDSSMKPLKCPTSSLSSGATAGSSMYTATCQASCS
- protocol_details: Measurement of GLP-1 receptor agonist activity (cAMP assay)
- Type: cell-based
- protocol_conditions: cAMP increase in GLP-1 R/CHO-K1 cells; 2 nM human GLP-1 (7-36) = 100%, DMSO only = 0%
pEC50: −log10 of the molar value.
reported_metric: pEC50

Some entries whose results are on file:
{"compound_smiles": "COc1ccc(COc2nc3c(cc2C(F)(F)F)CCN(Cc2nc4c(F)cc(C(=O)O)cc4n2C[C@@H]2CCO2)[C@H]3C)cc1", "pEC50": 9.83}
{"compound_smiles": "C[C@H]1c2nc(OCc3ccc(OC(F)F)cc3F)c(C(F)(F)F)cc2CCN1Cc1nc2ccc(C(=O)O)nc2n1C[C@@H]1CCO1", "pEC50": 9.51}

[1] COc1cc(C(=O)O)cc2c1nc(CN1CCc3cc(C(F)(F)F)c(OCc4cc(F)c(Cl)cc4F)nc3[C@@H]1C)n2C[C@@H]1CCO1
[2] C[C@H]1c2cc(OCc3ccccc3Cl)c(Cl)cc2CCN1Cc1nc2ccc(C(=O)O)c(F)c2n1C[C@@H]1CCO1
[3] COc1cc(Cl)ccc1COc1nc2c(cc1C(F)(F)F)CCN(Cc1nc3ccc(C(=O)O)nc3n1C[C@@H]1CCO1)[C@H]2C
[4] COc1cc(C(=O)O)cc2c1nc(CN1CCc3cc(C(F)(F)F)c(OCc4ccc(OC(F)F)cc4F)nc3[C@@H]1C)n2C[C@@H]1CCO1
Task: List the 4 entries from lowest pEC50 to highest pEC50 value. In your reply, arrange the labels in the requested order.
Result: 2, 3, 4, 1
